Please go through the items and note down their inhibition of SARS-CoV-2 cytopathic effect.
System: Vero E6 infected with SARS-CoV-2
Assay remarks: inhibition of SARS-CoV-2 cytopathic effect; higher = more antiviral protection, active = above 15
Experimental conditions: 10000 nM; 48 h
Give the value, in units of %, as a plain number.

Prompt: Which inhibition of SARS-CoV-2 cytopathic effect value belongs to CO[C@H]1O[C@@H]2O[C@@]3(C)CC[C@H]4[C@H](C)CC[C@@H]([C@H]1C)[C@@]24OO3 [artemether] ?
Response: 0.52

Prompt: Sample CC(=O)Oc1ccccc1C(=O)O [aspirin] — what was its inhibition of SARS-CoV-2 cytopathic effect?
Response: -12.8

Prompt: Any idea what inhibition of SARS-CoV-2 cytopathic effect was measured for CC[C@H]1OC(=O)[C@H](C)[C@@H](O[C@H]2C[C@@](C)(OC)[C@@H](O)[C@H](C)O2)[C@H](C)[C@@H](O[C@@H]2O[C@H](C)C[C@H](N(C)C)[C@H]2O)[C@](C)(OC)C[C@@H](C)C(=O)[C@H](C)[C@@H](O)[C@]1(C)O [clarithromycin] ?
Response: -3

Prompt: Which inhibition of SARS-CoV-2 cytopathic effect reading was recorded for the compound CN1CCN(CC(=O)N2c3ccccc3C(=O)Nc3cccnc32)CC1 [pirenzepine] ?
Response: -1.86

Prompt: Field request: inhibition of SARS-CoV-2 cytopathic effect | item: Cc1ccc(NC2=CC(=O)c3sc(C)nc3C2=O)cc1 [ryuvidine]
Response: -20.4

Prompt: Tell me the measured inhibition of SARS-CoV-2 cytopathic effect of CCCn1c(=O)c(C)cn2nc(N)nc12 , please.
Response: -2.15

Prompt: For COc1cccc(-c2ccc([C@@H](Oc3cc(-c4ccc(C[C@H](N)C(=O)O)cc4)nc(N)n3)C(F)(F)F)cc2)c1 , what is its reported inhibition of SARS-CoV-2 cytopathic effect?
Response: -1.29

Prompt: // inhibition of SARS-CoV-2 cytopathic effect lookup, key: O=C(O)[C@H]1CC[C@H](c2cc3cccnc3c(-c3cccc(F)c3)n2)CC1
Response: 1.21

Prompt: Give the measured inhibition of SARS-CoV-2 cytopathic effect of COC[C@H](NC(=O)c1cnc(C)s1)C(=O)N[C@@H](COC)C(=O)N[C@@H](Cc1ccccc1)C(=O)[C@@]1(C)CO1 [oprozomib] .
Response: 24.7

Prompt: Query (compound): C[C@H](NC(=O)CNC(=O)c1cccc(Cl)c1)c1ccccc1 ; field requested: inhibition of SARS-CoV-2 cytopathic effect
Response: 0.27

Prompt: Fill in the blank: the reported inhibition of SARS-CoV-2 cytopathic effect of O=C(O)CCCC[C@@H]1SC[C@@H]2NC(=O)N[C@@H]21 [biotin] is ____.
Response: 1.95

Prompt: Given C/N=C(/NC#N)NCCSCc1csc(NC(=N)N)n1 [tiotidine] , state its recorded inhibition of SARS-CoV-2 cytopathic effect.
Response: -1.02

Prompt: I am curious: what inhibition of SARS-CoV-2 cytopathic effect value has been reported for CS(=O)(=O)Nc1ccc([N+](=O)[O-])cc1Oc1ccccc1 [nimesulide] ?
Response: 2.92

Prompt: Fill in: inhibition of SARS-CoV-2 cytopathic effect of O[C@@H](COc1cccc2ncccc12)CN1CCN([C@@H]2c3ccccc3[C@@H]3[C@H](c4ccccc42)C3(F)F)CC1 [zosuquidar] is ___
Response: -3.28

Prompt: Query: inhibition of SARS-CoV-2 cytopathic effect; subject: COc1ccc(Cl)c(Nc2ncnc3cc(OCC4CCN(C)CC4)c(OC)cc23)c1
Response: -13.8

Prompt: What does the record list as inhibition of SARS-CoV-2 cytopathic effect for CN1CCN(Cc2ccc(-c3cnc4[nH]cc(-c5ccc6[nH]ccc6c5)c4c3)cc2)CC1 ?
Response: -14.8

Prompt: Record request: inhibition of SARS-CoV-2 cytopathic effect value, item OCc1ccc(O[C@@H]2O[C@H](CO)[C@@H](O)[C@H](O)[C@H]2O)cc1 [gastrodin]
Response: -4.3
